Data origin, for the record: paper PMC12980303

For each of the molecules below, state its Emax.
# MEASUREMENT TARGET: hCB1 receptor (Homo sapiens)
# Sequence (P21554 whole entry): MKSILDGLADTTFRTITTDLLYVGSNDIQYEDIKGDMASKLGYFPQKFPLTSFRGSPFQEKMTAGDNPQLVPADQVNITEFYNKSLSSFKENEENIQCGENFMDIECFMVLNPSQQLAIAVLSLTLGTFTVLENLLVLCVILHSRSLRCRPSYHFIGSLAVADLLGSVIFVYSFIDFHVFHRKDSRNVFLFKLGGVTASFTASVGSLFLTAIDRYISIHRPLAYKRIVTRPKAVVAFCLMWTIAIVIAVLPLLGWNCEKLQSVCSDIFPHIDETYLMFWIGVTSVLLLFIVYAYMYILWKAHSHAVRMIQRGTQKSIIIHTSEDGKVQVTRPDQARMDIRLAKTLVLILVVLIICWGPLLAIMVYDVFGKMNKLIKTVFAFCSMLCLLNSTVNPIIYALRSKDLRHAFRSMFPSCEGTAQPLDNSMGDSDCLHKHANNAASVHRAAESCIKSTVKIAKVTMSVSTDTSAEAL
# EXPERIMENT DESCRIPTION: functional [35S]GTPγS hCB1 activation assay
# Assay type: biochemical
# STUDY CONDITIONS: read-out: [35S]‐GTPγS assay Emax [%] (95% CI)
Return type: number; implicit unit %.

Query O=C(Oc1cccc2cccnc12)c1cn(CCCCCF)c2ccccc12 [5F‐PB‐22] yields Emax of 124

Query CCCCCn1cc(C(=O)c2cccc3ccccc23)c2ccccc21 [JWH‐018, reference compound] yields Emax of 118

Query CC(C)(c1ccccc1)n1ccc2c(c1=O)c1ccccc1n2CCCCCF [5F‐Cumyl‐PEGACLONE] yields Emax of 105

Query COC(=O)C(NC(=O)c1nn(CCCCCF)c2ccccc12)C(C)(C)C (centres unmarked) [5F‐ADB] yields Emax of 103

Query CCCCCn1c2ccccc2c2c(=O)n(C(C)(C)c3ccccc3)ccc21 [Cumyl‐PEGACLONE] yields Emax of 117
